- Tested on: OVCAR-3 ovarian
- Run Description: NCI tumour cell line growth inhibition, 48 h; in the data active = GI50 below about 0.43 µM; inactive = the rest
Field 'call' accepts active, inactive

Compound: CC(=O)c1c(C)[nH]c(-c2nc3ccc(N4CCN(C)CC4)cc3[nH]2)c1-c1ccccc1
System Name: OVCAR-3 ovarian
Class: inactive

Prompt: Could you check what this test reported for CN1C(=O)C2(c3ccccc31)N(c1ccc(Cl)cc1)C(=O)C2(c1ccccc1)c1ccccc1 (stereo not drawn) ?
Completion: inactive

Prompt: Could you check what this test reported for `CC1=C(Nc2ccc(N3CCN(C)CC3)cc2)C(=O)c2cncnc2C1=O` ?
Completion: inactive

Prompt: Could you check what this test reported for `Cn1cc(C2=C(c3cn(CCCCCSC(=N)N)c4ccccc34)C(=O)NC2=O)c2ccccc21` ?
Completion: inactive

Prompt: Could you check what this test reported for `Cn1c(-c2c(N)n(CCCN3CCOCC3)c3nc(C#N)c(C#N)nc23)nc2ccccc21` ?
Completion: inactive

Prompt: Could you check what this test reported for CN(Cc1cnc2nc(N)nc(N)c2n1)c1ccc(C(=O)NC(CCC(=O)O)C(=O)O)cc1Br (stereo not drawn) ?
Completion: active

Prompt: Could you check what this test reported for `CCN1CCN(C(=O)[C@]23CCC(C)(C)C[C@@H]2C2=CC[C@@H]4[C@@]5(C)C/C(=C/c6ccncc6)C(=O)C(C)(C)[C@@H]5CC[C@@]4(C)[C@]2(C)CC3)CC1` ?
Completion: inactive

Prompt: Could you check what this test reported for `CC[C@H](C)[C@H](NC(=O)CN(C)C)C(=O)N(C)[C@H](C[C@@H](OC(C)=O)c1nc(C(=O)NC23CC(C(=O)OC)(C2)C3)cs1)C(C)C` ?
Completion: active

====

- System: SF-539 CNS
- Run Description: NCI tumour cell line growth inhibition, 48 h
Reported TGI values are given for each entry in this list.

// worked examples, TGI included
Compound: CC1C(c2ccc(Cl)cc2)c2cc3c(cc2OC1N1CCOCC1)OCO3 (centres undefined)
Readout Value: > 100 µM
--
Compound: O=C(NNc1ccccc1)/C(=C/c1ccc2c(c1)OCO2)NC(=O)c1ccccc1
Readout Value: > 100 µM
--
Compound: CN(CC(=O)N(Cc1ccc(C2CCCCC2)cc1)c1ccc(C(=O)O)cc1)S(=O)(=O)c1c(F)c(F)c(F)c(F)c1F
Readout Value: 3.26 µM

Please turn your attention to the following entry.
Prompt: For `COc1cc(CCc2ccc(N)cc2)cc(OC)c1OC` , write its TGI.
Completion: > 100 µM

====

- System: MDA-MB-231 breast
- Run Description: NCI tumour cell line growth inhibition, 48 h; in the data active = GI50 below about 0.43 µM; inactive = the rest
Field 'call' accepts 1 (active), -1 (inactive)

Compound: CC(=O)c1c(C)[nH]c(-c2nc3ccc(N4CCN(C)CC4)cc3[nH]2)c1-c1ccccc1
Class: -1
//
Compound: CC[C@H](C)[C@H](NC(=O)CN(C)C)C(=O)N(C)[C@H](C[C@@H](OC(C)=O)c1nc(C(=O)NC23CC(C(=O)OC)(C2)C3)cs1)C(C)C
Class: 1
//
Compound: CC(=O)[O][Hg][c]1c(C)c(C)cc(C)c1C
Class: -1
//
Compound: COc1ccc(N(C)c2nc(N)nc3sc4c(c23)CCCC4)cc1
Class: 1
//
Compound: CN1CCN(CCCOc2cccc3nc(Nc4ccc(Cl)c(C(F)(F)F)c4)ccc23)CC1
Class: -1

Prompt: Could you check what this test reported for NC(=S)c1c(N)n(C2OC(CO)C(O)C2O)c2ncnc(N)c12 (configuration not stated) ?
Completion: 1

Prompt: Could you check what this test reported for `CC[n+]1c(/C=C/C=C2\N(C)c3ccccc3C2(C)C)sc2ccccc21` ?
Completion: -1

Prompt: Could you check what this test reported for `CCC(=O)c1c(C(F)(F)F)n([O-])c2cc(F)c(F)cc2[n+]1=O` ?
Completion: -1

Prompt: Could you check what this test reported for `CCCCCCCCCCCC[n+]1ccc2ccccc2c1` ?
Completion: -1

Prompt: Could you check what this test reported for `O=C1NC(=NCCCc2ccccc2)S/C1=C\c1ccc2ncccc2c1` ?
Completion: -1
